- Tested on: Streptococcus pneumoniae 1175
- Type: cell-based
- protocol conditions: S. pneumoniae 1175 (mefA); microtiter broth dilution
attribute measured: MIC S. pneumo. 1175 (µg/mL)
Enter your answer as a number in µg/mL; do not include the unit.

Ask: Given the entry CCC1OC(=O)C(C)C(=O)C(C)C(OC2OC(C)CC(N(C)C)C2O)C(C)(OC)CC(C)C(=O)C(C)C2N(C3CCN(Cc4ccnc5ncccc45)C3)C(=O)OC12C (stereo not shown) [Example 9.05] , report its measured MIC S. pneumo. 1175.
Reply: 0.5

Ask: Quick one: CC[C@H]1OC(=O)[C@H](C)C(=O)[C@H](C)[C@@H](O[C@@H]2O[C@H](C)C[C@H](N(C)C)[C@H]2O)[C@](C)(OC)C[C@@H](C)C(=O)[C@H](C)[C@H]2N(CC3(O)CN(C(=O)c4cc5ncccc5[nH]4)C3)C(=O)O[C@]12C.O=CO [7.32]
Reply: 2

Ask: Quick one: CC[C@H]1OC(=O)[C@H](C)C(=O)[C@H](C)[C@@H](O[C@@H]2O[C@H](C)C[C@H](N(C)C)[C@H]2O)[C@](C)(OC)C[C@@H](C)C(=O)[C@H](C)[C@H]2N(CC3(C)CN(C(=O)c4cccc(-n5cccn5)n4)C3)C(=O)O[C@]12C.O=CO [6.21]
Reply: 0.5
